tested on: HIV-1 Mutant 9; assay: Antiviral activity, in vitro drug sensitivity of HIV-1 isolates, Mutant 9; format: cell-based; conditions: Human immunodeficiency virus 1, read-out: Antiviral activity IC50 Mutant 9
pIC50: −log10 of the molar value.
PROPERTY_LABEL: pIC50

INSERT INTO results (compound, experimental_value) VALUES
  ('Cc1nc(COc2ccc(C[C@H](NC(=O)O[C@H]3CO[C@H]4OCC[C@H]43)[C@H](O)CN(CC(C)C)S(=O)(=O)c3ccc4occc4c3)cc2)cs1 [Compound D]', 7.49),
  ('Cc1nc(COc2ccc(C[C@H](NC(=O)O[C@H]3CO[C@H]4OCC[C@H]43)[C@H](O)CN(CC(C)C)S(=O)(=O)c3ccc4c(c3)OCO4)cc2)cs1 [GW0385, reference compound]', 7.38);
